Entry source: patent US7598255B2

- targetOfAssay: 5-HT2A receptor (Homo sapiens)
Where a name gives a salt, the structure may show the parent alone.
measureName: Ki (µM)
Response body: numeric value in µM, unit text excluded.

The examples below pair each entry with its known result.
{"columns": ["compound", "readoutNumber"],
 "data": [
  ["CN1CCc2nc(Cc3ccc(F)cc3)nc(-c3ccc(F)cc3)c2CC1", 0.00075],
  ["CN1CCc2nc(C3CCCC3)nc(-c3ccc(F)cc3)c2CC1", 0.002],
  ["Cc1cc(-c2nc(CC(C)C)nc3c2CNCC3)ccc1F", 0.15]
]}

Kindly state the measured Ki obtained for COc1ccc(-c2nc(C(C)C)nc3c2CNCC3)cc1 with 5-HT2A receptor (Homo sapiens).
0.8

Kindly state the measured Ki obtained for CN1CCc2c(nc(Cc3ccccc3)nc2-c2ccc(F)cc2)C1 [Example 82, hydrochloride] with 5-HT2A receptor (Homo sapiens).
0.002

Kindly state the measured Ki obtained for CC(C)c1nc2c(c(-c3ccc(F)c(F)c3)n1)CNCC2 [Example 24, hydrochloride] with 5-HT2A receptor (Homo sapiens).
0.24

Kindly state the measured Ki obtained for CC(C)Cc1nc2c(c(-c3ccsc3)n1)CNCC2 with 5-HT2A receptor (Homo sapiens).
0.15

Kindly state the measured Ki obtained for CC(C)c1nc2c(c(-c3ccsc3)n1)CCNC2 [Example 89, hydrochloride] with 5-HT2A receptor (Homo sapiens).
0.025

* * *

- targetOfAssay: UniProt P28223
Measured Ki accompanies every entry in the list below.

The examples below pair each entry with its known result.
{"columns": ["compound", "targetOfAssay", "Ki"],
 "data": [
  ["Cc1ccc(-c2cc(CN(C)C)nc(Cc3ccccc3)n2)cc1 [Example 112]", "UniProt P28223", "130 nM"],
  ["Cc1ccc(-c2nc(Cc3ccccc3)nc3c2CCN(Cc2ccccc2)C3)cc1 [Example 71]", "UniProt P28223", "1030 nM"],
  ["CC(C)c1nc2c(c(-c3cccc(F)c3)n1)CNCC2 [Example 25]", "UniProt P28223", "300 nM"],
  ["CC(C)c1nc(-c2ccc(Cl)cc2)c2c(n1)C(C)CN(Cc1ccccc1)C2 (centres unmarked) [Example 97]", "UniProt P28223", "> 10000 nM"]
]}

Switching to the query record.
Kindly state the measured Ki obtained for Fc1ccc(Cc2nc3c(c(-c4ccc(F)cc4)n2)CCNCC3)cc1 [Example 57] with UniProt P28223.
0.7 nM

* * *

- targetOfAssay: 5-HT2B receptor (Homo sapiens, UniProt P41595)
- Sequence (P41595 whole entry): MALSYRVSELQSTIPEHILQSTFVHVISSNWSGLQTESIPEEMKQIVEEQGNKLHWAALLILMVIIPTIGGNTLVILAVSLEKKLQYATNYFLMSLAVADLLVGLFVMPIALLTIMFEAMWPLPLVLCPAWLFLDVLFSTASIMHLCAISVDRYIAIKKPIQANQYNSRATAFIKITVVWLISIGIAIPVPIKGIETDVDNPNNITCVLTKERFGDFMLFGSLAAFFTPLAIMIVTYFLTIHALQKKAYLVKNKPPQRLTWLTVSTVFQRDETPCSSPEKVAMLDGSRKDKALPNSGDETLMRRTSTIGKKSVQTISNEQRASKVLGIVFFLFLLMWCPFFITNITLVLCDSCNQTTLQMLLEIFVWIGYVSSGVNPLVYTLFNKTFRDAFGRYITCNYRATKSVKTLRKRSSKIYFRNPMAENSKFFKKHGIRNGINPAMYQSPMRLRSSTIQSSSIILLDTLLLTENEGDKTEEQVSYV
measureName: Ki (µM)
Response body: numeric value in µM, unit text excluded.

The examples below pair each entry with its known result.
{"columns": ["molecule", "readoutNumber"],
 "data": [
  ["CN1CCc2nc(Cc3ccc(F)cc3)nc(-c3ccc(F)cc3)c2CC1", 0.021],
  ["CC(C)c1nc2c(c(-c3ccc(F)cc3)n1)CCCC2", 3.5],
  ["CC(C)c1nc2c(c(-c3ccccc3)n1)CCN(Cc1ccccc1)C2", 3],
  ["COc1ccc(-c2nc(C3CCCC3)nc3c2CCNCC3)cc1", 0.003]
]}

Switching to the query record.
Kindly state the measured Ki obtained for CC(C)c1nc2c(c(-c3ccc(Cl)cc3)n1)CNCC2 with 5-HT2B receptor (Homo sapiens, UniProt P41595).
1.6

* * *

- targetOfAssay: human recombinant 5-HT6 receptor (Homo sapiens, UniProt P50406)
- Sequence (P50406 whole entry): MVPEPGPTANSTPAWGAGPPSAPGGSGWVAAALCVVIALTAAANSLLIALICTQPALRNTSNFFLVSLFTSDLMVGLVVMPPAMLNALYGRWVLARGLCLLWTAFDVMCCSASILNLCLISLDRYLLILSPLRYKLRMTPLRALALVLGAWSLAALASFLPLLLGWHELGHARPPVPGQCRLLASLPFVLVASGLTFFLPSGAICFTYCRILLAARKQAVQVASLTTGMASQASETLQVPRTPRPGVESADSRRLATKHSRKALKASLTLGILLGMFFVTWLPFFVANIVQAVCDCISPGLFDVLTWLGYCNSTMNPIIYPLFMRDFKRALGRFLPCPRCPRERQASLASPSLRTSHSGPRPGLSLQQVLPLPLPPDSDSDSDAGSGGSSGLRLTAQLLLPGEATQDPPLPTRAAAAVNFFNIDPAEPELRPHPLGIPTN
- protocolDescription: Affinity for 5-HT6 receptor binding sites, [3H]LSD
- setupConditions: HEK-293 h5-HT6 membranes
Counter-ions that a name gives are not always drawn.
# note: exactly 100 nM is not below, so it is f; use t for Ki strictly under it

In the record for Fc1ccc(-c2nc(Cc3ccccc3)nc3c2CCCNC3)cc1 [Example 64, hydrochloride] , is Ki less than 100 nM?
f

In the record for Cc1ccc(-c2nc(Cc3ccccc3)nc3c2CCNCC3)cc1 , is Ki less than 100 nM?
t

In the record for Fc1ccc(-c2nc(Cc3ccccc3)nc3c2CCN(Cc2ccccc2)C3)cc1 [Example 70, hydrochloride] , is Ki less than 100 nM?
f

In the record for Cc1ccc(-c2nc(Cc3ccccc3)nc3c2CCN(Cc2ccccc2)C3)cc1 , is Ki less than 100 nM?
f

In the record for N#Cc1ccc(-c2nc(C3CCCC3)nc3c2CCNCC3)cc1 , is Ki less than 100 nM?
f

In the record for CC(C)c1nc2c(c(-c3ccc(Cl)cc3)n1)CNCC2 , is Ki less than 100 nM?
f

In the record for CC(C)c1nc2c(c(-c3ccc(F)cc3)n1)CCNC2 [Example 80, hydrochloride] , is Ki less than 100 nM?
f

In the record for Cc1ccc(-c2nc(C(C)C)nc3c2CNCC3C)cc1 (stereo not drawn) [Example 102, hydrochloride] , is Ki less than 100 nM?
f

In the record for CN1CCc2nc(Cc3ccc(F)cc3)nc(-c3ccc(F)cc3)c2CC1 , is Ki less than 100 nM?
t

In the record for CC(C)c1nc2c(c(-c3ccc(F)cc3)n1)CCC(N1CCCC1)C2 (stereo not drawn) , is Ki less than 100 nM?
f

In the record for Cc1ccc(-c2nc(Cc3ccccc3)nc3c2CCNC3)cc1 [Example 77, hydrochloride] , is Ki less than 100 nM?
f

In the record for CNC1CCc2nc(C(C)C)nc(-c3ccc(F)cc3)c2C1 (stereo not drawn) [Example 109, hydrochloride] , is Ki less than 100 nM?
f

In the record for Fc1ccc(Cc2nc3c(c(-c4ccc(F)cc4)n2)CCNCC3)cc1 , is Ki less than 100 nM?
t

In the record for C=C1CN(C)CCc2c1nc(Cc1ccc(F)cc1)nc2-c1ccc(F)cc1 , is Ki less than 100 nM?
t

In the record for CC(C)c1nc2c(c(-c3ccc(F)cc3)n1)CCCNC2 [Example 65, hydrochloride] , is Ki less than 100 nM?
f

* * *

Measured pKi accompanies every entry in the list below.
- targetOfAssay: rat 5-HT7a receptor (Rattus norvegicus)
- Sequence (P32305 whole entry): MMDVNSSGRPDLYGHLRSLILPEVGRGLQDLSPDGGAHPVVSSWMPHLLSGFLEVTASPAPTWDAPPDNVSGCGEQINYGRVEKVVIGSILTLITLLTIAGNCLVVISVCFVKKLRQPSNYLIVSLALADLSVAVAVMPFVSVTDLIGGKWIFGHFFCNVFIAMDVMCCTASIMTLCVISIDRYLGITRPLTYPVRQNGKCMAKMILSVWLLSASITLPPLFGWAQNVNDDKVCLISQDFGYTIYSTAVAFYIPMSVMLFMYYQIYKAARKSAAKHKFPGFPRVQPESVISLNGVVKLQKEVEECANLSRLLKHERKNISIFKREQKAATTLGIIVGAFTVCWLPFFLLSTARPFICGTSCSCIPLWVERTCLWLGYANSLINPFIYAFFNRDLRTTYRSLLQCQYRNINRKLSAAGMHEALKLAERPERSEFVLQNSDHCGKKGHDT
pKi: −log10 of the molar value.

The examples below pair each entry with its known result.
{"columns": ["molecule", "targetOfAssay", "pKi"],
 "data": [
  ["COc1ccc(-c2nc(C3CCCC3)nc3c2CNCC3)cc1", "rat 5-HT7a receptor (Rattus norvegicus)", "< 5.00"],
  ["CN1CCc2nc(C3CCCC3)nc(-c3ccc(F)cc3)c2CC1", "rat 5-HT7a receptor (Rattus norvegicus)", "< 5.00"],
  ["c1ccc(Cc2nc3c(c(-c4ccccc4)n2)CCN(Cc2ccccc2)C3)cc1", "rat 5-HT7a receptor (Rattus norvegicus)", "< 5.00"],
  ["FC(F)(F)c1ccc(-c2nc(Cc3ccccc3)nc3c2CNCC3)cc1", "rat 5-HT7a receptor (Rattus norvegicus)", 5.30],
  ["CN1CCc2nc(Cc3ccc(F)cc3)nc(-c3ccc(F)cc3)c2CC1", "rat 5-HT7a receptor (Rattus norvegicus)", 5.28]
]}

Kindly state the measured pKi obtained for CC(C)N1CCc2c(nc(Cc3ccccc3)nc2-c2ccc(F)cc2)C1 with rat 5-HT7a receptor (Rattus norvegicus).
< 5.00

Kindly state the measured pKi obtained for CC(C)c1nc(-c2ccc(C(F)(F)F)cc2)c2c(n1)C(C)CNC2 (stereo not drawn) with rat 5-HT7a receptor (Rattus norvegicus).
< 5.00

Kindly state the measured pKi obtained for Cc1ccc(-c2nc(C3CCCC3)nc3c2CCN(C)CC3)cc1 with rat 5-HT7a receptor (Rattus norvegicus).
7.00

Kindly state the measured pKi obtained for C=C1CN(C)CCc2c1nc(Cc1ccc(F)cc1)nc2-c1ccc(F)cc1 with rat 5-HT7a receptor (Rattus norvegicus).
< 5.00

* * *

- targetOfAssay: 5-HT2B receptor (Homo sapiens, UniProt P41595)
- protocolDescription: Affinity for 5HT2 receptor binding sites, h5-HT2B, [3H]mesulergine
- setupConditions: CHO h5-HT2B membranes
Where a name gives a salt, the structure may show the parent alone.
measureName: Ki (nM)
Response body: numeric value in nM, unit text excluded.

The examples below pair each entry with its known result.
{"columns": ["compound", "Ki [nM]"],
 "data": [
  ["COc1ccc(-c2nc(C3CCCC3)nc3c2CCN(C)CC3)cc1 [Example 60]", 10],
  ["CC(C)c1nc(-c2ccsc2)c2c(n1)C(C)CNC2 (stereo not shown) [Example 105]", 100],
  ["CC(C)c1nc2c(c(-c3ccc(F)cc3)n1)CNCC2 [Example 21, hydrochloride]", 1190],
  ["CC(C)Cc1nc2c(c(-c3cccs3)n1)CNCC2 [Example 35]", 400],
  ["Cc1ccc(-c2nc(Cc3ccccc3)nc3c2CNCC3)cc1 [Example 8]", 1000]
]}

I have this compound here, CC(C)c1nc(-c2ccc(F)cc2)c2c(n1)C(C)CNC2 (stereo not shown) [Example 100, hydrochloride] , and I need its recorded Ki.
900

I have this compound here, CCC(C)c1nc2c(c(-c3ccc(C)cc3)n1)CNCC2 (stereo not shown) [Example 4, hydrochloride] , and I need its recorded Ki.
250

I have this compound here, Cc1cc(-c2nc(C(C)C)nc3c2CCN(C)C3)cs1 [Example 90, hydrochloride] , and I need its recorded Ki.
130

I have this compound here, Cc1ccc(-c2nc(Cc3ccccc3)nc3c2CCN(Cc2ccccc2)C3)cc1 [Example 71] , and I need its recorded Ki.
4330

I have this compound here, CC(C)Cc1nc2c(c(-c3ccsc3)n1)CNCC2 [Example 34] , and I need its recorded Ki.
400

I have this compound here, Cc1ccc(-c2nc(C3CCCC3)nc3c2CNCC3)cc1 [Example 18] , and I need its recorded Ki.
80
